Answer each item with its documented HepSE_Combined Scores.
Response field accepts a number only; no unit should be typed.

Q: Entry "COc1cc([C@@H]2c3cc4c(cc3[C@H](O)[C@H]3COC(=O)[C@H]23)OCO4)cc(OC)c1OC" , system Hepatotoxicity: what HepSE_Combined Scores was measured?
A: 0

Q: Entry "CN1CCC(=C2c3ccccc3CC(=O)c3sccc32)CC1" , system Hepatotoxicity: what HepSE_Combined Scores was measured?
A: 1

Q: Entry "N=C(N)NCCN1CCCCCCC1" , system Hepatotoxicity: what HepSE_Combined Scores was measured?
A: 0

###

Answer each item with its documented HepSE_bilirubinemia.
Response field accepts a number only; no unit should be typed.

Q: Entry "Nc1nnc(-c2cccc(Cl)c2Cl)c(N)n1" , system Hepatotoxicity: what HepSE_bilirubinemia was measured?
A: 1

Q: Entry "CCC[C@@]1(CCc2ccccc2)CC(O)=C([C@H](CC)c2cccc(NS(=O)(=O)c3ccc(C(F)(F)F)cn3)c2)C(=O)O1" , system Hepatotoxicity: what HepSE_bilirubinemia was measured?
A: 1

Q: Entry "C[C@@H](c1ncncc1F)[C@](O)(Cn1cncn1)c1ccc(F)cc1F" , system Hepatotoxicity: what HepSE_bilirubinemia was measured?
A: 1

Q: Entry "CC[N+](C)(C)Cc1ccccc1Br" , system Hepatotoxicity: what HepSE_bilirubinemia was measured?
A: 0

Q: Entry "CC(=O)OCC(CCn1cnc2cnc(N)nc21)COC(C)=O" , system Hepatotoxicity: what HepSE_bilirubinemia was measured?
A: 1

Q: Entry "C[C@@H]1C[C@H]2[C@@H]3CCC4=CC(=O)C=C[C@]4(C)[C@@]3(F)[C@@H](O)C[C@]2(C)[C@H]1C(=O)CO" , system Hepatotoxicity: what HepSE_bilirubinemia was measured?
A: 0

Q: Entry CC1(C)O[C@@H]2C[C@H]3[C@@H]4C[C@H](F)C5=CC(=O)C=C[C@]5(C)[C@H]4[C@@H](O)C[C@]3(C)[C@]2(C(=O)CO)O1 [FLUNISOLIDE] , system Hepatotoxicity: what HepSE_bilirubinemia was measured?
A: 0

###

Where a SMILES comes first, the peptide text is derived from it. Bridges are numbered along the chain shown (N, C = ends). [ ]: non-standard residue; d: D form. The star is where a group is joined. Threoninol(2S,3R) = C[C@@H](O)[C@H](CO)N*
Answer each item with its documented HepSE_jaundice.
Response field accepts a number only; no unit should be typed.

Q: Entry CC(C)C(=O)OCC(=O)[C@@]12O[C@H](C3CCCCC3)O[C@@H]1C[C@H]1[C@@H]3CCC4=CC(=O)C=C[C@]4(C)[C@H]3[C@@H](O)C[C@@]12C [CICLESONIDE] , system Hepatotoxicity: what HepSE_jaundice was measured?
A: 0

Q: Entry CCCCC[C@H](O)CC[C@@H]1[C@H]2Cc3cccc(OCC(=O)O)c3C[C@H]2C[C@H]1O [TREPROSTINIL] , system Hepatotoxicity: what HepSE_jaundice was measured?
A: 0

Q: Entry C[C@@H](O)[C@H](CO)NC(=O)[C@@H]1CSSC[C@H](NC(=O)[C@H](N)Cc2ccccc2)C(=O)N[C@@H](Cc2ccccc2)C(=O)N[C@H](Cc2c[nH]c3ccccc23)C(=O)N[C@@H](CCCCN)C(=O)N[C@@H]([C@@H](C)O)C(=O)N1 (H-[dF]CF[dW]KTC-{Threoninol(2S,3R)}; disulfide 2-7) , system Hepatotoxicity: what HepSE_jaundice was measured?
A: 1

Q: Entry "OC[C@H]1O[C@@H](O)[C@@H](F)[C@@H](O)[C@@H]1O" , system Hepatotoxicity: what HepSE_jaundice was measured?
A: 0

Q: Entry OCCN1CCN(CCCN2c3ccccc3Sc3ccc(Cl)cc32)CC1 [PERPHENAZINE] , system Hepatotoxicity: what HepSE_jaundice was measured?
A: 1

Q: Entry C[C@@H](O)C(=O)O [D-LACTIC ACID] , system Hepatotoxicity: what HepSE_jaundice was measured?
A: 0

Q: Entry O=[N+]([O-])OCC(CO[N+](=O)[O-])O[N+](=O)[O-] [NITROGLYCERIN] , system Hepatotoxicity: what HepSE_jaundice was measured?
A: 0

Q: Entry CC[N+](CC)(CCNC(=O)C(=O)NCC[N+](CC)(CC)Cc1ccccc1Cl)Cc1ccccc1Cl [AMBENONIUM] , system Hepatotoxicity: what HepSE_jaundice was measured?
A: 0

Q: Entry COc1cc(NC(C)CCCN)c2ncccc2c1 (stereo not given) [PRIMAQUINE] , system Hepatotoxicity: what HepSE_jaundice was measured?
A: 0

Q: Entry CC(=O)OCC(CCn1cnc2cnc(N)nc21)COC(C)=O [FAMCICLOVIR] , system Hepatotoxicity: what HepSE_jaundice was measured?
A: 1

Q: Entry CC(=O)S[C@@H]1CC2=CC(=O)CC[C@]2(C)[C@H]2CC[C@@]3(C)[C@@H](CC[C@@]34CCC(=O)O4)[C@H]12 [SPIRONOLACTONE] , system Hepatotoxicity: what HepSE_jaundice was measured?
A: 0

Q: Entry NNC(=O)c1ccncc1 [ISONIAZID] , system Hepatotoxicity: what HepSE_jaundice was measured?
A: 1

Q: Entry Cc1ccc(C)c(OCCCC(C)(C)C(=O)O)c1 [GEMFIBROZIL] , system Hepatotoxicity: what HepSE_jaundice was measured?
A: 1

Q: Entry C#Cc1cccc(Nc2ncnc3cc(OCCOC)c(OCCOC)cc23)c1 [ERLOTINIB] , system Hepatotoxicity: what HepSE_jaundice was measured?
A: 0

Q: Entry CNC(=C[N+](=O)[O-])NCCSCc1csc(CN(C)C)n1 [NIZATIDINE] , system Hepatotoxicity: what HepSE_jaundice was measured?
A: 1

###

Answer each item with its documented HepSE_hepatic failure.

Q: Entry CCN(CC)CC#CCOC(=O)C(O)(c1ccccc1)C1CCCCC1 (centres undefined) [OXYBUTYNIN] , system Hepatotoxicity: what HepSE_hepatic failure was measured?
A: 0

Q: Entry COC(=O)CCC(=O)CN [METHYL AMINOLEVULINATE] , system Hepatotoxicity: what HepSE_hepatic failure was measured?
A: 0

Q: Entry FC(F)OC(F)(F)C(F)Cl (centres undefined) , system Hepatotoxicity: what HepSE_hepatic failure was measured?
A: 1

Q: Entry CN(C)C(=O)Oc1ccc[n+](C)c1 [PYRIDOSTIGMINE] , system Hepatotoxicity: what HepSE_hepatic failure was measured?
A: 0

###

Answer each item with its documented HepSE_jaundice.
Response field accepts a number only; no unit should be typed.

Q: Entry COc1cc([C@@H]2c3cc4c(cc3[C@H](O)[C@H]3COC(=O)[C@H]23)OCO4)cc(OC)c1OC [PODOFILOX] , system Hepatotoxicity: what HepSE_jaundice was measured?
A: 0

Q: Entry Cc1ccc(S(=O)(=O)NC(=O)NN2CCCCCC2)cc1 [TOLAZAMIDE] , system Hepatotoxicity: what HepSE_jaundice was measured?
A: 1

Q: Entry CCN(CC)CCOC(=O)c1ccc(N)cc1Cl [CHLOROPROCAINE] , system Hepatotoxicity: what HepSE_jaundice was measured?
A: 0

Q: Entry Nc1ccc(O)c(C(=O)O)c1 [MESALAMINE] , system Hepatotoxicity: what HepSE_jaundice was measured?
A: 1

Q: Entry Oc1ccc(OCc2ccccc2)cc1 [MONOBENZONE] , system Hepatotoxicity: what HepSE_jaundice was measured?
A: 0

Q: Entry O=[As][As+](=O)[O-] (stereo not drawn) [ARSENIC TRIOXIDE] , system Hepatotoxicity: what HepSE_jaundice was measured?
A: 0

Q: Entry CC1=C(CC(=O)O)c2cc(F)ccc2/C1=C\c1ccc([S+](C)[O-])cc1 (stereo not drawn) , system Hepatotoxicity: what HepSE_jaundice was measured?
A: 1

Q: Entry CN1CCc2cccc3c2[C@H]1Cc1ccc(O)c(O)c1-3 [APOMORPHINE] , system Hepatotoxicity: what HepSE_jaundice was measured?
A: 0

###

Let's go through some HepSE_hepatomegaly measurements on Hepatotoxicity together.
Response field accepts a number only; no unit should be typed.

Q: Item under review: FC(F)OC(Cl)C(F)(F)F (configuration not stated) . Reported HepSE_hepatomegaly?
A: 0

Q: Item under review: "Clc1ccc2c(c1)C(N1CCNCC1)=Nc1ccccc1O2" . Reported HepSE_hepatomegaly?
A: 0

Q: Item under review: CCN[C@H]1C[C@H](C)S(=O)(=O)c2sc(S(N)(=O)=O)cc21 [DORZOLAMIDE] . Reported HepSE_hepatomegaly?
A: 1

Q: Item under review: CC(C)NCC(O)COc1ccc(COCCOC(C)C)cc1 (configuration not stated) . Reported HepSE_hepatomegaly?
A: 0

Q: Item under review: CC1=C(CC(=O)O)c2cc(F)ccc2/C1=C\c1ccc([S+](C)[O-])cc1 (configuration not stated) . Reported HepSE_hepatomegaly?
A: 0

Q: Item under review: CCCNC(=O)NS(=O)(=O)c1ccc(Cl)cc1 [CHLORPROPAMIDE] . Reported HepSE_hepatomegaly?
A: 0

Q: Item under review: CCC(=O)[C@@]1(C)[C@H](C)C[C@H]2[C@@H]3CCC4=CC(=O)C=C[C@]4(C)[C@H]3[C@@H](O)C[C@@]21C [RIMEXOLONE] . Reported HepSE_hepatomegaly?
A: 0
